Biological target: human TLR9 (Homo sapiens, UniProt Q9NR96)
Sequence (Q9NR96 26-1032): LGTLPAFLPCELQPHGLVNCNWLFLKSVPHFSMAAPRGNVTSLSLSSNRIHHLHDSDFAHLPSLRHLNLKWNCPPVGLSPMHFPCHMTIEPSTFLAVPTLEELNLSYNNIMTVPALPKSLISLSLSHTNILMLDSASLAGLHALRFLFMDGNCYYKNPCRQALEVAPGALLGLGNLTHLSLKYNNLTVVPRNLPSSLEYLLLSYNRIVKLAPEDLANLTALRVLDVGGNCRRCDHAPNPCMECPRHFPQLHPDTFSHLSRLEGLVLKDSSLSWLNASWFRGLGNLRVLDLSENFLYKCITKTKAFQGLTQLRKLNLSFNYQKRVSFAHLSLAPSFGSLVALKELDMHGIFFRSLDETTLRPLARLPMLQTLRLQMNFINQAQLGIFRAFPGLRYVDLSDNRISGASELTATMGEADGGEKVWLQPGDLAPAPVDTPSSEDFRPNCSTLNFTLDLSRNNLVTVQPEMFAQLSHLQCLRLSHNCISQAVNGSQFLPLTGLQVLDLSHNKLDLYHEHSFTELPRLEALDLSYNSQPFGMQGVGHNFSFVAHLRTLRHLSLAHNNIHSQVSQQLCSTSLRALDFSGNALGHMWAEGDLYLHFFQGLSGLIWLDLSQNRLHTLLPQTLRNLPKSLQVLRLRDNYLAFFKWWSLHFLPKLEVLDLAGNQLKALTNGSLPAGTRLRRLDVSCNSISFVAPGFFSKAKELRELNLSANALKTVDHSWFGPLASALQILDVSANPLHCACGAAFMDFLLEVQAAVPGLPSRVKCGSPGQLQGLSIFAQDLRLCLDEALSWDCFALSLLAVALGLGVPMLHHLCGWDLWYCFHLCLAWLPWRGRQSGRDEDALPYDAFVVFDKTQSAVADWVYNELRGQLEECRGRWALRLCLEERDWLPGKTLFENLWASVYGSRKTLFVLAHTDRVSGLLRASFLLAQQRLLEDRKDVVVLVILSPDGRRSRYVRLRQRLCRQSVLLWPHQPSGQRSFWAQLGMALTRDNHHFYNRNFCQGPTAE
Test: TLR9 inhibition reporter assay (HEK-Blue SEAP reporter, ODN2006 stimulation)
Conditions: HEK-Blue cells overexpressing human TLR9, SEAP reporter, ODN2006 5 nM, 22 hour incubation
Please provide measured pIC50 for the entries that follow.
Quick note: pIC50 values are minus log10 of concentrations in mol/L.

In: Please give the measured pIC50 for this compound: "CCCN1CCC(c2ccc3[nH]c(-c4cc(COC)c(=O)n(C)c4)c(C(C)C)c3c2)CC1"
Out: 4.97

In: Given "CC(=O)Nc1cccc(-c2cc(-c3[nH]c4ccc(C5CCNCC5)cc4c3C(C)C)cn(C)c2=O)c1" , state its recorded pIC50.
Out: 5.51

In: Requested field: pIC50. Item: "Cc1c(-c2[nH]c3ccc(C4CCN(C(=O)CN(C)C)CC4)cc3c2C(C)C)cn(C)c(=O)c1C"
Out: 5.34

In: Using the record for "Cc1cc(-c2[nH]c3ccc(C4CCN(C5CCOCC5)CC4)cc3c2C(C)C)nn(C)c1=O" , report its pIC50.
Out: 5.53

In: Give the measured pIC50 of "CC(C)c1c(-c2cc(C(F)(F)F)c(=O)n(C)c2)[nH]c2ccc(C3CCNCC3)cc12" .
Out: 5.95

In: Name the reported pIC50 value associated with the compound "Cc1c(-c2[nH]c3ccc(C4CCN(C(=O)CN(C)C)CC4)cc3c2C(C)C)cn(C)c(=O)c1Cl"
Out: 5.49

In: Which pIC50 value belongs to "Cc1c(-c2[nH]c3ccc(C4CCN(C)CC4)cc3c2C(C)C)cn(C)c(=O)c1Cl" ?
Out: 5.59

In: So what does the record say about pIC50 for "Cc1cc(-c2[nH]c3ccc(C4CCN(C5CCOCC5)CC4)cc3c2C(C)C)cn(CC(C)C)c1=O" ?
Out: 5.67

In: Tell me the measured pIC50 of "COCCCN1CCC(c2ccc3[nH]c(-c4cn(C)c(=O)c(Cl)c4C)c(C(C)C)c3c2)CC1" , please.
Out: 5.30

In: Need pIC50, item "CNC(C)(C)C(=O)N1CCC(c2ccc3[nH]c(-c4cc(C)c(=O)n(C)c4)c(C(C)C)c3c2)CC1"
Out: 4.67

In: Please give the measured pIC50 for this compound: Cc1nc(-c2[nH]c3ccc(C4CCN(C5CCCOC5)CC4)cc3c2C(C)C)cn(C)c1=O (stereo not drawn)
Out: 6.18

In: Sample "CC(C)c1c(-c2cc(-c3ccc(F)nc3)c(=O)n(C)c2)[nH]c2ccc(C3CCN(C(C)C)CC3)cc12" — what was its pIC50?
Out: 5.48

In: Dear colleague, I am looking for the recorded pIC50 of the following compound: "CC(C)CCN1CCC(c2ccc3[nH]c(-c4cc(-c5ccccc5)c(=O)n(C)c4)c(C(C)C)c3c2)CC1"
Out: 5.70

In: What pIC50 value was documented for this compound, "CNC(=O)CN1CCC(c2ccc3[nH]c(-c4cn(C)c(=O)c(OC)c4C)c(C(C)C)c3c2)CC1" ?
Out: 4.66

Hello, the source for this data is patent US11447466B2, in case you need it.
